Molecular target: Human M4 (Homo sapiens, UniProt P08173)
Construct: expressed in transfected cells; host or cells: CHO-K1 (Chinese hamster ovary, ATCC), stably expressing M4 and Gqi5
Sequence (P08173 whole entry): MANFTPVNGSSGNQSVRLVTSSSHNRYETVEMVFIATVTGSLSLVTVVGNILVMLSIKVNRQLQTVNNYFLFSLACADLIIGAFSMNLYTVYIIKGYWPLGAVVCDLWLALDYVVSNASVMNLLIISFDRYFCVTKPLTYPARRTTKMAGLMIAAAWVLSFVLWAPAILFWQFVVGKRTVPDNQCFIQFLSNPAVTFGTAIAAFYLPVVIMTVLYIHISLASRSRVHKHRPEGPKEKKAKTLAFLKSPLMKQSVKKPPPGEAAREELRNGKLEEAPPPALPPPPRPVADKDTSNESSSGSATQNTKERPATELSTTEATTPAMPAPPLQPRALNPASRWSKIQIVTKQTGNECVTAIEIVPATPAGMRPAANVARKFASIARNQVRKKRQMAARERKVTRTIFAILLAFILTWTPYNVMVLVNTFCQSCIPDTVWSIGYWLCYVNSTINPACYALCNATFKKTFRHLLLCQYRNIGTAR
Assay: mAChR M4 cell-based functional assay (calcium flux, EC80 acetylcholine response)
Details: M4/Gqi5/CHO-K1 cells; decrease of the response to an EC80 concentration of acetylcholine; read-out: Human M4 IC50
Endpoint: pIC50
Remember, pIC50 is on a log scale: it is -log10 of the molar concentration.

Smiles str: [2H]C([2H])([C@@H]1COCCO1)N1C[C@H]2C[C@H](Nc3ccc(-c4ccc5nn(C)cc5c4C)nn3)C[C@H]2C1
pIC50: 8.05
//
Smiles str: [2H]C([2H])(C1CCOCC1)N1C[C@H]2C[C@H](Nc3ccc(-c4ccc5nn(C([2H])([2H])[2H])cc5c4C(F)F)nn3)C[C@H]2C1
pIC50: 9.19

Please turn your attention to the following entry.
Returns the measured pIC50 for the input compound. Input: Cc1cc(N[C@H]2C[C@@H]3CN(CC4CCOCC4)C[C@@H]3C2)nnc1-c1ccc2nn(C)cc2c1C
9.12
